biological target: RIPK1 (human); assay: KINOMEscan competition binding; conditions: compound 10.0 µM
Known kinase still bound, per cent of control of a selection of molecules
Give the number; % is assumed, so skip it.

molecule	recorded-endpoint	result-unit	reading
COc1cc(C(=O)NC2CCN(C)CC2)ccc1Nc1ncc2c(n1)N(C1CCCC1)C(C)CC(=O)N2C (configuration not stated)	kinase still bound, per cent of control	%	100
CCN1CCN(Cc2ccc(Nc3ncc4c(n3)N(C)c3ccccc3C(=O)N4C)cc2C(F)(F)F)CC1	kinase still bound, per cent of control	%	24
O=C(O)c1ccc(Nc2ncc3c(n2)-c2ccc(Cl)cc2C(c2c(F)cccc2F)=NC3)cc1	kinase still bound, per cent of control	%	100

Case "Cc1ccc2nc(NCCN)c3ncc(C)n3c2c1" , RIPK1 (human), kinase still bound, per cent of control recorded as 100

Case "O=C(NC1CC1)c1cccc(-c2ccc3c(NC(=O)C4CC4)n[nH]c3c2)c1" , RIPK1 (human), kinase still bound, per cent of control recorded as 0.05

Case "COc1cc(N2CCN(C)CC2)ccc1Nc1nc(N)c(C(=O)c2c(Cl)cccc2Cl)s1" , RIPK1 (human), kinase still bound, per cent of control recorded as 100

Case "C=CC(=O)Nc1cc(NC(=O)c2ccc(C)c(NC(=O)c3ccno3)c2)cc(C(F)(F)F)c1" , RIPK1 (human), kinase still bound, per cent of control recorded as 100
